Origin of values: patent US20030068675

# Tested target: T1, ZFP SBS#1418 (synthetic)
# T1 chain: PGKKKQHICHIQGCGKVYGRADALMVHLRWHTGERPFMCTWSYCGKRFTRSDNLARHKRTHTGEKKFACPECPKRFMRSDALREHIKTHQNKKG
# Protocol text: EMSA
# Condition summary: tags: MBP fusion
Measurement name: pKd
Scale: pKd equals -log10([C]), with [C] in mol/L.

// field: pKd; key: CTGGAGTTG (dsDNA) DNA 1: CTGGAGTTG DNA 2: CAACTCCAG ; value = 9.62
